Every entry's value here was drawn from PubChem BioAssay.

EXPERIMENT: basal RPMI8226 mitochondrial membrane potential changes, profiling panel, cell-based, JC-1 fluorescence, 24 h, 100 nL compound (AID 1169); further: test concentration not given here
REPORTED CONDITIONS: RPMI8226 myeloma, JC-1 mitochondrial potential fluorescence, higher = more signal
READOUT LABEL: z-score
Number only, please.

Which z-score is listed for C[C@@H]1CC[C@H]2C(=O)O[C@@H](Cc3ccccc3)CN2[C@H]1c1ccc(Br)cc1 ?
0.231

// returns reported z-score for input COC(=O)CC=C[C@@H](C)[C@@H](C=NO[C@@H]1O[C@H](COC(C)=O)[C@@H](OC(C)=O)[C@H](OC(C)=O)[C@H]1OC(C)=O)NS(=O)(=O)c1ccc(C)cc1
-0.736

Given C=CC[C@@H]1C=C[C@H](ON=C(C)CCN2CCc3nc(-c4ccccc4)c(-c4ccccc4)cc3C2)[C@@H](CO)O1 , state its recorded z-score.
0.518

Given the molecule CON=CC[C@@H]1C=C[C@H](OC(C)=O)[C@@H](COC(C)=O)O1 , what is its reported z-score?
-0.589

For the molecule shown here, CO[C@H]1COC(=O)[C@H](C)NC(=O)[C@@H](C)COC(=O)[C@H]2CCCN2C(=O)CC=C[C@H]1C , give the reported z-score.
-0.0639

z-score lookup needed for CCOC(=O)[C@H](CC(C)C)NC(=O)CCC1CC(OC(=O)NCc2cccc3ccccc23)CC2(CCCC(COC(=O)NCCOC)O2)O1 (some centres undefined) , thanks.
-0.198

I have this molecule here, CC(CCN1CCCCc2nc(C)c(C)cc21)=NO[C@H](C)c1cn([C@H](CO)Cc2ccccc2)nn1 , and I need its recorded z-score.
0.686

# query: z-score of entry C#CCCCON=C1C[C@@H](O)[C@@H](O)[C@@H]2[C@@H]3C(=O)N(C(C)(C)C)C(=O)[C@@H]3CC[C@H]12
0.386

May I ask what z-score has been recorded for CC(C)=CCCC(C)=CCON=C1C[C@@H](O)[C@@H](O)[C@@H]2[C@@H]3C(=O)N(c4ccc(F)cc4F)C(=O)[C@@H]3CC[C@@H]12 ?
-0.163

Any idea what its z-score is? The molecule is CO[C@H]1COC(=O)[C@@H]2CCCN2C(=O)CC=C[C@@H](C)[C@H](OC)COC(=O)[C@@H](OCc2ccccc2)C=C[C@@H]1C
0.0666

Given the entry COC(=O)[C@@H]1CC[C@H](C)[C@@H](c2ccc(C)cc2)N1C(=O)c1ccc(C=NO[C@@H]2O[C@H](COC(C)=O)[C@@H](OC(C)=O)[C@H](OC(C)=O)[C@H]2OC(C)=O)cc1 , report its measured z-score.
-0.139

I have this molecule here, CO[C@H]1COC(=O)[C@@H](C)COC(=O)[C@H](C)NC(=O)CC=C[C@H]1C , and I need its recorded z-score.
-0.693

Please look up its z-score: CO[C@H]1COC(=O)CC=C[C@H](C)[C@@H](OC)COC(=O)[C@@H](C)NC(=O)CC=C[C@@H]1C
-0.244

Need z-score, item CC(C)(C)N1C(=O)[C@H]2[C@H]3[C@H](O)[C@H](O)CC(=NO[C@@H]4O[C@H](CO)[C@@H](O)[C@H](O)[C@H]4O)[C@H]3CC[C@H]2C1=O
-0.344

State the recorded z-score for this entry: COC(=O)CC=C[C@@H](C)[C@H](OCc1cccc(-c2ccccc2)c1)C1CCCCC1
-0.165

So what's the measured z-score for this one? COc1cccc([C@H]2Oc3ccc(OC)cc3C(=NO[C@H](C)c3cn([C@H](CO)Cc4ccccc4)nn3)[C@@H]2O)c1
-0.0494

Any idea what its z-score is? The molecule is C#CCCCON=C1C[C@@H](O)[C@@H](O)[C@@H]2[C@@H]3C(=O)N(c4cccc(Oc5ccccc5)c4)C(=O)[C@@H]3CC[C@H]12
-0.263

Would you mind telling me what z-score value was observed for CC(CCN1CCCCc2nc(C)c(C)cc21)=NOC[C@@H](C)[C@H](OCc1ccccc1)C(C)C ?
0.0506

Entry under review: COc1cccc([C@H]2Oc3ccc(OC)cc3C(=NOC[C@@H](O)[C@H]3O[C@@H]4OC(C)(C)O[C@@H]4[C@H]3O)[C@@H]2O)c1 . Reported z-score?
-0.578

// z-score lookup, key: CC(C)=CCCC(C)=CCON=C1C[C@@H](O)[C@@H](O)[C@@H]2[C@@H]3C(=O)N(C(C)(C)C)C(=O)[C@@H]3CC[C@H]12
-0.15

Looking for the measured z-score of CO[C@@H]1COC(=O)CC=C[C@H](C)[C@H](OC)COC(=O)[C@H](C)NC(=O)CC=C[C@H]1C , can you help?
0.403

Name the reported z-score value associated with the molecule O=C1[C@H]2[C@H]3[C@H](O)[C@H](O)CC(=NOCc4ccccc4)[C@H]3CC[C@H]2C(=O)N1Cc1ccc2c(c1)OCO2
0.0189

GET /values?readout=z-score&item= CC(C)CON=C1C[C@@H](O)[C@@H](O)[C@@H]2[C@@H]3C(=O)N(C4CCCCC4)C(=O)[C@@H]3CC[C@H]12
0.0139

Which value of z-score has been reported for O=C1[C@H]2[C@H]3[C@H](O)[C@H](O)CC(=NOCc4ccccc4)[C@@H]3CC[C@H]2C(=O)N1c1ccc(F)cc1F in the records?
-0.261

Any idea what its z-score is? The molecule is CCCNC(=O)OC[C@H]1O[C@H](c2ccccc2)C=C[C@@H]1Oc1ccc(OC)cc1
-0.215

Quick one: z-score of CCOC(=O)NN=C1C[C@@H](O)[C@@H](O)[C@@H]2[C@@H]3C(=O)N(C(C)(C)C)C(=O)[C@@H]3CC[C@H]12 ?
-0.252

Give its z-score value. Item: COc1ccc(O[C@H]2C=C[C@@H](c3ccccc3)O[C@@H]2COC(=O)CCC(C)=NOC(C)CN2CCCc3nc(C)c(C)cc32)cc1 (some centres undefined)
-0.455

Field request: z-score | item: COC(=O)[C@H]1O[C@@H](c2c(OC)c(OC)c(C)c(OC)c2OC)[C@H](C)[C@@H](O)[C@H]1C
-0.398

// returns reported z-score for input CC(C)=CCCC(C)=CCON=C1C[C@@H](O)[C@@H](O)[C@@H]2[C@@H]3C(=O)N(Cc4ccccc4)C(=O)[C@@H]3CC[C@H]12
0.394

---

SYSTEM: Luciferin 4-monooxygenase (Photinus pyralis) (UniProt P08659)
Sequence (P08659 whole entry, looked up): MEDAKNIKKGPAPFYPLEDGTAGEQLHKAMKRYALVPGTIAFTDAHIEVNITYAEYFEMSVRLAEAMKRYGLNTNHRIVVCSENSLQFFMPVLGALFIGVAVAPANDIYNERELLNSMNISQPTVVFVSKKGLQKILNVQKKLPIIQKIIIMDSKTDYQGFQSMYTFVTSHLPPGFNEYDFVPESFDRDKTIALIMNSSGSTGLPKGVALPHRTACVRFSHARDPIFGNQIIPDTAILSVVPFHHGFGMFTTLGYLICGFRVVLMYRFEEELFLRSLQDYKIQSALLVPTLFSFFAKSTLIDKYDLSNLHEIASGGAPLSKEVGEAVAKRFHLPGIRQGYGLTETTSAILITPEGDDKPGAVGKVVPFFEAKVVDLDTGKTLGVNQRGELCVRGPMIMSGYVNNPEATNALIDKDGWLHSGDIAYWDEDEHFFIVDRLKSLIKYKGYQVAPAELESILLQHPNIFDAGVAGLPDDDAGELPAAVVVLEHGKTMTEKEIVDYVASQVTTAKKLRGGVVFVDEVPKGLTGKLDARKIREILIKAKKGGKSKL
EXPERIMENT: firefly luciferase enzyme inhibitors, primary screen, biochemical, luminescence, purified enzyme, 2006 set (AID 1141);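 further: cell-free assay with purified firefly luciferase at 100 ng per well in PBS; test concentration not given here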
REPORTED CONDITIONS: SteadyGlo luminescence, 30 min, higher = more signal, called active from +8 up or from −8 down
Label True for high-side z-score (at or above 0.06) and False for low-side z-score (below it).

Check this compound for z-score at or above 0.06: O=C1C=C[C@@H](O)[C@@H]2[C@@H]3C(=O)N(C[C@@H]4CCCO4)C(=O)[C@@H]3CC[C@@H]12
False

Identify whether the reported z-score of the following compound is 0.06 or greater: CCCCc1nc2c(c3c1C[C@H](C)OC3)CN(CCOc1ccccc1)CC2
False

Decide: z-score of CC(C)(C)N1C(=O)[C@H]2[C@H]3[C@H](O)[C@H](O)CC(=NO[C@@H]4O[C@H](CO)[C@@H](O)[C@H](O)[C@H]4O)[C@H]3CC[C@H]2C1=O >= 0.06?
True

Would you say COc1ccc(O[C@H]2C=C[C@@H](c3ccccc3)O[C@@H]2COC(=O)CCC(C)=NOC(C)CN2CCCc3nc(C)c(C)cc32)cc1 (some centres not stated) shows z-score at minimum 0.06?
True

Quick check: does COC(=O)[C@H](C)NC(=O)CCC1CC(OC(=O)NCCc2ccc(F)cc2)CC2(CCCC(COC(=O)NCc3cccc(C(F)(F)F)c3)O2)O1 (some centres not stated) have z-score greater than or equal to 0.06?
True

Tell me whether z-score is at least 0.06 here: CCOC(=O)[C@H](CC(C)C)NC(=O)CCC1CC(OC(=O)NCc2ccc3c(c2)OCO3)CC2(CCCC(COC(=O)NCC3CCCCC3)O2)O1 (some centres not stated)
True

Check the entry CC(CCN1CCCc2nc(C)c(C)cc21)=NOC(C)CN1CCCCc2nc(C)c(C)cc21 (configuration not stated) : does z-score equal or exceed 0.06?
False

---

SYSTEM: Alpha-bungarotoxin (Bungarus multicinctus)
EXPERIMENT: alpha-bungarotoxin binders on microarray, profiling panel, artefact control for SMM control protein annotation, biochemical, small-molecule microarray, Alexa647 label, 635/667 nm fluorescence (AID 1117)
REPORTED CONDITIONS: alpha-BTX-A647 binding fluorescence, higher = more signal
Tag: 1 (yes) if measured composite z-score is not below 0.2, 0 (no) if it is.

Confirm if composite z-score reported for the compound CO[C@@H]1COC(=O)[C@@H]2CCCN2C(=O)[C@@H](C)COC(=O)CC=C[C@H]1C is 0.2 or above.
1 (yes)

Kindly determine if composite z-score recorded for COC(=O)CC=C[C@@H](C)[C@@H](C=NO[C@@H](C)c1cn([C@H](CO)Cc2ccccc2)nn1)NS(=O)(=O)c1ccc(C)cc1 is above or exactly 0.2.
0 (no)

composite z-score >= 0.2 for CCOC(=O)[C@H](CC(C)C)NC(=O)CCC1CC(OC(=O)NCCc2ccc(F)cc2)CC2(CCCC(COC(=O)NCC(c3ccccc3)c3ccccc3)O2)O1 (stereo not given in full) ?
1 (yes)

I'd appreciate it if you could say whether O=C1OCCC=C1C(O)CCc1ccccc1 (stereo not given) has composite z-score at least equal to 0.2.
1 (yes)

hey, is composite z-score for this one >= 0.2? CO[C@H]1COC(=O)[C@@H](C)COC(=O)[C@H](C)NC(=O)CC=C[C@H]1C
0 (no)

Does the reported composite z-score for CC(=O)OC[C@H]1OC(ON=CC[C@@H]2C=C[C@H](OC(C)=O)[C@@H](COC(C)=O)O2)[C@H](OC(C)=O)[C@@H](OC(C)=O)[C@@H]1OC(C)=O (stereo not given in full) fall at or above the 0.2 mark?
0 (no)

Is composite z-score for CCc1cc2c(nc1CC)CCN(CCC(C)=NOC[C@H]1O[C@H](c3ccccc3)C=C[C@@H]1Oc1ccc(OC)cc1)C2 at or above 0.2?
1 (yes)

Is reported composite z-score greater than or equal to 0.2 here: COc1ccc(O[C@H]2C=C[C@@H](c3ccccc3)O[C@@H]2COC(=O)CCC(C)=NO[C@@H]2O[C@H](COC(C)=O)[C@@H](OC(C)=O)[C@H](OC(C)=O)[C@H]2OC(C)=O)cc1
1 (yes)

Can O=C(NN=C1C[C@@H](O)[C@@H](O)[C@@H]2[C@@H]3C(=O)N(Cc4ccccc4)C(=O)[C@@H]3CC[C@@H]12)OCc1ccccc1 be said to have composite z-score at or above 0.2?
0 (no)

For this compound, is measured composite z-score 0.2 or higher? COC(=O)[C@H]1O[C@@H](c2c(OC)c(OC)c(C)c(OC)c2OC)[C@H](C)[C@@H](O)[C@H]1C
0 (no)

Does composite z-score meet or surpass 0.2 for CC(C)=CCCC(C)=CCON=C1C[C@@H](O)[C@@H](O)[C@@H]2[C@@H]3C(=O)N(c4ccc(F)cc4F)C(=O)[C@@H]3CC[C@@H]12 ?
1 (yes)

Is reported composite z-score greater than or equal to 0.2 here: CCOC(=O)[C@H](CC(C)C)NC(=O)CCC1CC(OC(=O)NCCc2ccc(F)cc2)CC2(CCCC(COC(=O)NCCc3ccc(Cl)cc3)O2)O1 (stereo not given in full)
1 (yes)

Item CO[C@@H]1COC(=O)[C@@H](C)COC(=O)[C@@H](C)NC(=O)CC=C[C@@H]1C with composite z-score of 0.2 or above?
0 (no)

hey, is composite z-score for this one >= 0.2? O=C1C[C@@H](O)[C@@H](O)[C@@H]2[C@@H]3C(=O)N(Cc4ccc5c(c4)OCO5)C(=O)[C@@H]3CC[C@H]12
0 (no)
